Reported IC50 values for a set of compounds
system_under_test: TBK1 (Homo sapiens (Human), UniProt Q9UHD2)
Sequence (Q9UHD2 whole entry): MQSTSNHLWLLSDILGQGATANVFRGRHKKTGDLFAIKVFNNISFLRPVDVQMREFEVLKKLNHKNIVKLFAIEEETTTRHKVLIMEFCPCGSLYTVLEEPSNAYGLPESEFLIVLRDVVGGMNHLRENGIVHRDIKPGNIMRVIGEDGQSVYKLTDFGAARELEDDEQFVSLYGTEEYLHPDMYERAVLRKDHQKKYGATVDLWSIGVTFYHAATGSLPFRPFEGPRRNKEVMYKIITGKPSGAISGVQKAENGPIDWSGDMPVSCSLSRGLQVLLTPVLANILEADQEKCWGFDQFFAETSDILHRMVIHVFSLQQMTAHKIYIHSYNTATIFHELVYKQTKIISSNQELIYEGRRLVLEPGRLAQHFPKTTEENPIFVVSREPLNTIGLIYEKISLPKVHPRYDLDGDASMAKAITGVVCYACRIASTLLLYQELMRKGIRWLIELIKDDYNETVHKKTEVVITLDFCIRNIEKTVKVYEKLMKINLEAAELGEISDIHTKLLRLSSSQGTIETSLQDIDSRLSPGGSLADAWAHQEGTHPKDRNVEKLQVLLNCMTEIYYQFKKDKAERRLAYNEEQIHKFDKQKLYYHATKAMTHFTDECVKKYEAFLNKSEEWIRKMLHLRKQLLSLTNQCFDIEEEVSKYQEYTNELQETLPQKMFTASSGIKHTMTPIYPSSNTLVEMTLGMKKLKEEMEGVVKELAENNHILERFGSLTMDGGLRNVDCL
test_method_notes: TBK1 low ATP kinase assay (in vitro assay 1)
Type: biochemical
assay_context: in vitro assay 1, read-out: TBK1 low ATP kinase assay IC50
property_name: IC50 (nM)

>>> value_measured("Cc1nccc(-c2ccc3nc(Nc4cc(C(C)N5CCN(C(=O)C6CCC6)CC5)ccn4)[nH]c3c2)n1 (single isomer, unassigned) [Example 24.05.02.A]")
11
>>> value_measured("Cc1noc(-c2ccc3nc(Nc4cc(CN5CCN(C(=O)CC(F)(F)F)CC5)ccn4)[nH]c3c2)n1")
109
>>> value_measured("COc1c(-c2ccc3nc(Nc4cc(CN5CCN(C(=O)CC(F)(F)F)CC5)ccn4)[nH]c3c2)ncnc1N(C)C")
13
>>> value_measured("CCOc1ncnc(-c2ccc3nc(Nc4cc(CN5CCN(C(=O)C6CC6)CC5)ccn4)[nH]c3c2)c1OC")
41.3
>>> value_measured("CCOc1nccc(-c2ccc3nc(Nc4cc(CN5CCN(C(=O)C6CCC6)CC5)ccn4)[nH]c3c2)n1")
11.6
>>> value_measured("O=C(CC(F)(F)F)N1CCN(Cc2ccnc(Nc3nc4ccc(-c5ncnc(NC6CC6)c5F)cc4[nH]3)c2)CC1")
18.3

----------
system_under_test: TBK1 (Homo sapiens (Human), UniProt Q9UHD2)
test_method_notes: TBK1 low ATP kinase assay (in vitro assay 1)
Format: biochemical
assay_context: in vitro assay 1, read-out: TBK1 low ATP kinase assay IC50
pIC50: −log10 of the molar value.
property_name: pIC50

>>> value_measured("Cc1noc(-c2ccc3nc(Nc4cc(CN5CCN(C(=O)C(C)(C)O)CC5)ccn4)[nH]c3c2)n1 [Example 101.16]")
6.72
>>> value_measured("CC(C)N(C)c1cc(-c2ccc3nc(Nc4cc(CN5CCN(C(=O)CC(F)(F)F)CC5)ccn4)[nH]c3c2)ncn1 [Example 153.02]")
8.23
>>> value_measured("CC(c1ccnc(Nc2nc3ccc(-c4cc(N5CCCC5)ncn4)cc3[nH]2)c1)N1CCN(C(=O)C2(C)CC2(F)F)CC1 (single isomer, unassigned) [Example 117.06]")
9.07

----------
Reported IC50 values for a set of molecules
system_under_test: TBK1 (Homo sapiens (Human), UniProt Q9UHD2)
test_method_notes: TBK1 low ATP kinase assay (in vitro assay 1)
Type: biochemical
assay_context: in vitro assay 1, read-out: TBK1 low ATP kinase assay IC50
property_name: IC50 (nM)

>>> value_measured("CC(c1ccnc(Nc2nc3ccc(-c4cc(OCC(F)(F)F)ncn4)cc3[nH]2)c1)N1CCN(C(=O)C2CC2(F)F)CC1 (single isomer, unassigned) [Example 119.05]")
6.35
>>> value_measured("CC(c1ccnc(Nc2nc3ccc(-c4cnn(CC5CC5)c4)c(Cl)c3[nH]2)c1)N1CCN(C(=O)OC(C)(C)C)CC1 (single isomer, unassigned) [Example 122.01]")
9.3
>>> value_measured("CC(c1ccnc(Nc2nc3ccc(-c4cnn(CC5CC5)c4)cc3[nH]2)c1)N1CCN(C(=O)OC(C)(C)C)CC1 (single isomer, unassigned) [Example 39.02.01]")
8.61

----------
Reported log10 of IC50 values for a set of compounds
system_under_test: TBK1 (Homo sapiens (Human))
test_method_notes: TBK1 low ATP kinase assay (in vitro assay 1)
Type: biochemical
assay_context: in vitro assay 1, read-out: TBK1 low ATP kinase assay IC50
property_name: log10 of IC50 (log10 of the value in µM)

>>> value_measured("Cc1noc(-c2ccc3nc(Nc4cc(CN5CCN(C=O)CC5)ccn4)[nH]c3c2)n1 [Example 101.01]")
-0.17
>>> value_measured("Cc1cnn(C)c1-c1ccc2nc(Nc3cc(C(C)N4CCN(C(=O)CC(F)(F)F)CC4)ccn3)[nH]c2c1 (single isomer, unassigned) [Example 73.01]")
-1.17
>>> value_measured("COc1c(NCC2CC2)ncnc1-c1ccc2nc(Nc3cc(CN4CCN(C(=O)CC(F)(F)F)CC4)ccn3)[nH]c2c1 [Example 109.01.02]")
-2.27
>>> value_measured("CC(c1ccnc(Nc2nc3ccc(-c4cc(N(C)C)ncn4)cc3[nH]2)c1)N1CCN(C(=O)C2CC2)CC1 (single isomer, unassigned) [Example 100.03]")
-2.70
>>> value_measured("O=C(C1CCC1)N1CCN(Cc2ccnc(Nc3nc4ccc(-c5ccnc(C(F)(F)F)n5)cc4[nH]3)c2)CC1 [Example 27.02]")
-0.66
>>> value_measured("Cc1nccc(-c2ccc3nc(Nc4cc(C(C)N5CCN(C(=O)CC(F)(F)F)CC5)ccn4)[nH]c3c2)n1 (single isomer, unassigned) [Example 24.05.01.B]")
-2.18
>>> value_measured("CC(c1ccnc(Nc2nc3ccc(-c4cc(OCC(F)(F)C(F)(F)F)ncn4)cc3[nH]2)c1)N1CCN(C(=O)C2CC2)CC1 (single isomer, unassigned) [Example 166.03]")
-1.68
>>> value_measured("Cc1noc(-c2ccc3nc(Nc4cc(CN5CCN(c6ncccn6)CC5)ccn4)[nH]c3c2)n1 [Example 101.05]")
-0.11
>>> value_measured("CCc1nccc(-c2ccc3nc(Nc4cc(CN5CCN(C(=O)OC(C)(C)C)CC5)ccn4)[nH]c3c2)n1 [Example 28.01]")
-0.95
>>> value_measured("O=C(CC(F)(F)F)N1CCN(Cc2ccnc(Nc3nc4ccc(-c5ccnc(N6CCCC6)n5)cc4[nH]3)c2)CC1 [Example 177.02]")
-1.13
>>> value_measured("CC(c1ccnc(Nc2nc3ccc(-c4ccncn4)cc3[nH]2)c1)N1CCN(C(=O)C2CC2)CC1 (racemic) [Example 23.04.02]")
-2.62
>>> value_measured("Cc1cncnc1-c1ccc2nc(Nc3cc(CN4CCN(C(=O)C5CC5)CC4)ccn3)[nH]c2c1 [Example 184.03]")
-0.67
>>> value_measured("O=C(C1CCC1)N1CCN(Cc2ccnc(Nc3nc4ccc(-c5ccn(CC6CC6)c(=O)c5)cc4[nH]3)c2)CC1 [Example 44.03]")
-1.07
>>> value_measured("COCCOCCS(=O)(=O)N1CCN(Cc2ccnc(Nc3nc4ccc(-c5ncncc5OC)cc4[nH]3)c2)CC1 [Example 35.01.11]")
-1.54
>>> value_measured("O=C(C1CC1)N1CCN(Cc2ccnc(Nc3nc4ccc(-c5nc(C6CC6)c[nH]5)cc4[nH]3)c2)CC1 [Example 43.03]")
-0.16
>>> value_measured("Cc1cccc(-c2ccc3nc(Nc4cc(CN5CCN(C(=O)C6CC6)CC5)ccn4)[nH]c3c2)n1 [Example 12.02]")
-0.03
>>> value_measured("CN(C)c1cc(-c2ccc3nc(Nc4cc(CN5CCN(C(=O)OC(C)(C)C)CC5)ccn4)[nH]c3c2)ccn1 [Example 135.01]")
-1.15
>>> value_measured("CC(c1ccnc(Nc2nc3ccc(-c4cnn(CC5CC(F)(F)C5)c4)cc3[nH]2)c1)N1CCN(C(=O)C2CC2)CC1 (single isomer, unassigned) [Example 169.03]")
-1.78
>>> value_measured("COCCCNc1cc(-c2ccc3nc(Nc4cc(CN5CCN(C(=O)OC(C)(C)C)CC5)ccn4)[nH]c3c2)ncn1 [Example 90.01]")
-2.24
>>> value_measured("Cc1noc(-c2ccc3nc(Nc4cc(CN5CCN(C(=O)CC6CC6)CC5)ccn4)[nH]c3c2)n1 [Example 16.01.03]")
-0.94
>>> value_measured("CN(C)c1cc(-c2ccc3nc(Nc4cc(CN5CCN(C(=O)OC(C)(C)C)CC5)ccn4)[nH]c3c2)ncn1 [Example 143.01]")
-1.74
>>> value_measured("O=C(C1CC1)N1CCN(Cc2ccnc(Nc3nc4ccc(-c5ncccn5)cc4[nH]3)c2)CC1 [Example 180.03]")
-0.44

----------
system_under_test: TBK1 (Homo sapiens (Human))
test_method_notes: TBK1 low ATP kinase assay (in vitro assay 1)
Format: biochemical
assay_context: in vitro assay 1, read-out: TBK1 low ATP kinase assay IC50
Binary call on IC50 with cut-off 40 nM: strictly below means 1.0, and equality or higher means 0.0.

>>> class("Cc1noc(-c2ccc3nc(Nc4cc(CN5CCN(C(=O)CC(F)(F)F)CC5)ccn4)[nH]c3c2C)n1")
0.0
>>> class("CN(c1cc(-c2ccc3nc(Nc4cc(CN5CCN(C(=O)CC(F)(F)F)CC5)ccn4)[nH]c3c2)ncn1)C1CCC1")
1.0
>>> class("COc1nc(-c2ccc3nc(Nc4cc(CN5CCN(C(=O)CC(F)(F)F)CC5)ccn4)[nH]c3c2)cc(N(C)C)n1")
1.0
>>> class("CC(c1ccnc(Nc2nc3ccc(-c4cnn(CC5CC5(F)F)c4)cc3[nH]2)c1)N1CCN(C(=O)OC(C)(C)C)CC1 (single isomer, unassigned) [Example 55.01.02]")
1.0
>>> class("COc1cncnc1-c1ccc2nc(Nc3cc(CN4CCN(C(=O)C5CC5)CC4)ccn3)[nH]c2c1")
1.0
>>> class("CCOc1ncnc(-c2ccc3nc(Nc4cc(CN5CCN(C(=O)C6(C(F)(F)F)CC6)CC5)ccn4)[nH]c3c2)c1OC")
1.0
>>> class("CN(C)c1cnc(-c2ccc3nc(Nc4cc(CN5CCN(C(=O)OC(C)(C)C)CC5)ccn4)[nH]c3c2)cn1")
0.0
>>> class("Cc1cc(-c2ccc3nc(Nc4cc(CN5CCN(C(=O)CC(F)(F)F)CC5)ccn4)[nH]c3c2)cc(C#N)n1")
1.0
>>> class("Cc1nccc(-c2ccc3nc(Nc4cc(C(C)N5CCN(C(=O)C6CC6)CC5)ccn4)[nH]c3c2)n1 (single isomer, unassigned) [Example 24.05.04.B]")
1.0
>>> class("CCOc1c(-c2ccncc2OC)ccc2nc(Nc3cc(CN4CCN(C(=O)CC(F)(F)F)CC4)ccn3)[nH]c12")
0.0
>>> class("C[C@H](c1ccnc(Nc2nc3ccc(-c4cc(OCC(F)(F)F)ncn4)cc3[nH]2)c1)N1CCN(C(=O)CC(F)(F)F)CC1")
1.0
>>> class("CC(c1ccnc(Nc2nc3ccc(-c4cc(OCC(F)(F)C(F)(F)F)ncn4)cc3[nH]2)c1)N1CCN(C(=O)C2(C(F)(F)F)CC2)CC1 (single isomer, unassigned)")
0.0
>>> class("COc1c(Cl)ncnc1-c1ccc2nc(Nc3cc(CN4CCN(C(=O)CC(F)(F)F)CC4)ccn3)[nH]c2c1")
0.0
>>> class("COc1nccc(-c2ccc3nc(Nc4cc(CN5CCN(C(=O)C6CC6)CC5)ccn4)[nH]c3c2)n1")
0.0
>>> class("CN(C)c1ccnc(-c2ccc3nc(Nc4cc(CN5CCN(C(=O)OC(C)(C)C)CC5)ccn4)[nH]c3c2)n1")
0.0
>>> class("Cc1cc(-c2ccc3nc(Nc4cc(C(C)N5CCN(C(=O)CC(F)(F)F)CC5)ccn4)[nH]c3c2F)ncn1 (single isomer, unassigned)")
1.0
>>> class("Cn1cc(-c2ccc3nc(Nc4cc(CN5CCN(C(=O)C6CCC6)CC5)ccn4)[nH]c3c2)cn1")
0.0
>>> class("CN(c1cc(-c2ccc3nc(Nc4cc(CN5CCN(C(=O)OC(C)(C)C)CC5)ccn4)[nH]c3c2)ncn1)C1CC1")
1.0
>>> class("COc1nnc(Cl)cc1-c1ccc2nc(Nc3cc(CN4CCN(C(=O)C5CC5)CC4)ccn3)[nH]c2c1")
0.0
